Assay: Antioxidant activity assessed as Trolox equivalent per microM of compound after 15 mins by oxygen radical absorbance capacity fluorescein assay
Assay type: physicochemical
Settings: 0.25 h
measured-endpoint: fold change (Trolox equivalents (ORAC))
Give bare numbers.

Past entries and their recorded results:
[
  {
    "record-smiles": "COc1cc2oc(-c3ccc(O)cc3)cc(=O)c2c(OC)c1OC",
    "fold change (Trolox equivalents (ORAC))": 5.7
  },
  {
    "record-smiles": "COc1cc2oc(-c3ccc(OCC(=O)NCCCCCNc4c5c(nc6cc(Cl)ccc46)CCCC5)cc3)cc(=O)c2c(OC)c1OC",
    "fold change (Trolox equivalents (ORAC))": 0.55
  },
  {
    "record-smiles": "COc1cc2oc(-c3cccc(OCC(=O)NCCCNc4c5c(nc6cc(Cl)ccc46)CCCC5)c3)cc(=O)c2c(OC)c1OC",
    "fold change (Trolox equivalents (ORAC))": 0.57
  }
]

Batch of 2 compounds: report fold change (Trolox equivalents (ORAC)) for each.
1. COc1cc2oc(-c3cccc(O)c3)cc(=O)c2c(OC)c1OC
2. COc1cc2oc(-c3ccc(OCC(=O)NCCCCCCNc4c5c(nc6cc(Cl)ccc46)CCCC5)cc3)cc(=O)c2c(OC)c1OC

Reply:
[3.6, 0.52]

Hey, can you go through the list below and give me fold change (Trolox equivalents (ORAC)) for every item?
1. COc1cc2oc(-c3cccc(OCC(=O)NCCCCNc4c5c(nc6cc(Cl)ccc46)CCCC5)c3)cc(=O)c2c(OC)c1OC
2. COc1cc2oc(-c3ccc(OCC(=O)NCCCCNc4c5c(nc6cc(Cl)ccc46)CCCC5)cc3)cc(=O)c2c(OC)c1OC

Reply:
[0.55, 0.58]
